Source listed as a melting point compilation (Tetko et al.; mined from patent text by program, amines drawn as free bases though some values may be those of a salt).

resultType: melting point

Record excerpt, results attached:
1. CCCNC(=O)n1nc(Oc2ncc(C(F)(F)F)cc2Cl)c(Cl)c1C ... 54 to 56 °C
2. CC(C)c1ccc2c(=O)cc(C(=O)O)[nH]c2c1 ... > 240 °C
3. CC(C)(C)c1nnc(NC(=O)CC(=O)CBr)s1 ... 128 to 130 °C
4. COc1ccc2c(c1)c1c(n2C(=O)c2ccc(Cl)cc2)CCCC1C(=O)O (stereo not given) ... 181 to 185 °C
5. CCCc1nn(-c2ccc(C(F)(F)F)cn2)cc1CCCCOc1cc(CC(=O)O)ccc1OC ... 147 to 148 °C
6. Nc1ccc(CP2(=O)OCCCCO2)cc1 ... 128 to 129 °C

QUERY: Look up melting point: CC(CCCC(C)(C)O)C1CCC2C3CC=C4CC(O)CC(O)C4(C)C3CCC12C (stereo not given)
RESULT: 170 to 172 °C

QUERY: Look up melting point: COC(=O)CNc1cccc(C)c1
RESULT: 40 °C

QUERY: Look up melting point: CCc1nn(CCN)c(CC)c1Cc1cc(C#N)cc(C#N)c1
RESULT: 100 to 105 °C

QUERY: Look up melting point: CCOc1ccccc1OCC(O)CNCCNc1cnn(C)c(=O)c1Cl (stereo not given)
RESULT: 120 °C

QUERY: Look up melting point: c1ccc2c(c1)N=C(N1CCCCC1)c1cscc1N2
RESULT: 157 to 159 °C

QUERY: Look up melting point: NS(=O)(=O)c1ccc(S(=O)(=O)CCCO)c(C(=O)O)c1
RESULT: 170 °C

QUERY: Look up melting point: COc1ccc2c(c1)C(=O)c1c-2n(CCCBr)c(=O)c2cc([N+](=O)[O-])ccc12
RESULT: 282 to 284 °C

QUERY: Look up melting point: O=c1c2ccccc2c(-c2ccccc2)cn1CCCCl
RESULT: 138 °C

QUERY: Look up melting point: CCOCc1nc2c(N)nc3ccc(OCc4ccccc4)cc3c2n1CC(C)C
RESULT: 183 to 184 °C

* * *

Below, each entry is listed with its recorded melting point.

1. COc1cc(O)c(C(=O)CCc2ccc3occc3c2)cc1C(O)C1OC(C(=O)C(C)C(=O)O)C(O)C(O)C1O (centres undefined) ... 113 to 114 °C
2. Cc1ccc(C(=O)NCCN(C)C)cc1-n1c(C)cc(OCc2ccc(F)cc2CNC(=O)Nc2cc(C(C)(C)C)nn2-c2ccc(Cl)c(O)c2)c(Cl)c1=O ... 177 to 178 °C
3. Cn1nc(O)c(Cl)c1C(F)(F)F ... 136 to 140 °C

Here is another compound to look at.
QUERY: Look up melting point: CC(Cc1c[nH]c2ccccc12)(NC(=O)OC1C2CC3CC(C2)CC1C3)C(=O)NCC(NC=O)c1ccccc1 (centres undefined)
RESULT: 102 to 118 °C

* * *

resultType: melting point

Record excerpt, results attached:
1) CC1CC(c2ccc(CCCCN)cc2)=NNC1=O (stereo not given) ... 118 to 120 °C
2) O=C(O)/C=C/C=C(c1cccc(C(F)(F)F)c1)c1cccc(C(F)(F)F)c1 ... 110 to 112 °C

QUERY: Look up melting point: COC(=O)C(=C(C)C)N1C(=O)[C@H]([C@H](C)OC(=O)OCc2ccc([N+](=O)[O-])cc2)[C@@H]1Cl
RESULT: 154 to 157 °C

QUERY: Look up melting point: O=C(O)C(O)COc1ccc(Cl)cc1 (stereo not given)
RESULT: 135 to 136 °C

QUERY: Look up melting point: CC(=O)C=Cc1ccc2c(c1)Cc1ccccc1-2
RESULT: 146 to 148 °C

* * *

Below, each entry is listed with its recorded melting point.

Record excerpt, results attached:
1. Cn1cc2c(CO)c(Br)ccc2n1 ... 123 to 125 °C
2. Cc1cccc(C(=O)NC(C)C)c1N(C(=O)c1cc(C(F)(F)F)[nH]n1)c1ncccc1Cl ... 194 to 195 °C
3. O=c1cc2c(nn1-c1ccc(Cl)cc1)-c1cnccc1CC2 ... 166 to 168 °C

QUERY: Look up melting point: O=C(NNC(=O)c1occ(-c2ccccc2)c1-c1ccccc1)c1ccc(O)c(F)c1
RESULT: 243 to 245 °C

QUERY: Look up melting point: Cc1ccc2c(n1)C(=O)N(c1cccc(S(C)(=O)=O)c1C)C2=O
RESULT: 237 to 239 °C

QUERY: Look up melting point: Cn1ncc2ccccc2c1=O
RESULT: 111 to 112 °C

* * *

Below, each entry is listed with its recorded melting point.

1. Cc1ccn(-c2cc(Nc3c(Cl)cc(Cl)cc3Cl)nc(C)n2)n1 ... 245 to 247 °C

QUERY: Look up melting point: O=C1COC2(CCN(CCCC(=O)c3ccc(F)cc3)CC2)CN1
RESULT: 117 to 118 °C

QUERY: Look up melting point: CC(=O)OC1CC2CCC3C(CCC4(C)C(O)C(N5CCCCC5)CC34)C2(C)CC1N1CCOCC1 (stereo not given)
RESULT: 148 to 152 °C

QUERY: Look up melting point: CCOC(=O)C=Cc1ccc(C(=O)O)cc1
RESULT: 196 to 197 °C

QUERY: Look up melting point: CC1(c2cc(N3C(=O)C4=C(CCCC4)C3=O)c(F)cc2Cl)OCCO1
RESULT: 147 °C

QUERY: Look up melting point: CC1(C)COC(=O)[C@@H]1Oc1ccc(C#N)c(C(F)(F)F)c1
RESULT: 89.9 to 90.7 °C

QUERY: Look up melting point: COc1cc(C2(C#N)CC2)ccc1OCc1ccccc1
RESULT: 84 °C

QUERY: Look up melting point: O=C(Nc1cccc(-c2ncnc3[nH]c(-c4ccncc4)cc23)c1)c1cccc(C(F)(F)F)c1
RESULT: > 280 °C

QUERY: Look up melting point: CSc1ncc(CO)c(N)n1
RESULT: 124 to 127 °C

QUERY: Look up melting point: O=C(c1cc(=O)c2cc(O)ccc2[nH]1)N1CCC(OCc2ccccc2)CC1
RESULT: 103 °C

* * *

resultType: melting point

1. Cc1ccc(S(=O)(=O)Sc2cc(C)c(CO)cc2C(C)(C)C)cc1 ... 121 to 122 °C

QUERY: Look up melting point: CCCNC(=O)C1(C/C=C/c2ccccc2)c2ccccc2-c2ccccc21
RESULT: 95 to 97 °C

QUERY: Look up melting point: Nc1nc(-c2cc(Cl)ccc2Cl)nc(N2CCC(O)CC2)n1
RESULT: 222 to 224 °C

QUERY: Look up melting point: CC(C)(C)OC(=O)NCc1cc(N=C(N)c2cccs2)ccc1N1CCN(C(=O)CCCCC2CCSS2)CC1 (stereo not given)
RESULT: 162 to 164 °C

QUERY: Look up melting point: COc1nc(C)c(N2CCCn3c2nc2cccc(C(O)C(F)(F)F)c23)c(C)n1 (stereo not given)
RESULT: 296 to 299 °C

* * *

resultType: melting point

Record excerpt, results attached:
1. O=C(O)CS(=O)(=O)c1cccc(C(=O)C2CCC3(CCNCC3)CC2)c1 ... 134 to 138 °C
2. CCOc1ccc2cc(-c3nc(-c4ccccc4)no3)c(=O)oc2c1 ... 229 °C

QUERY: Look up melting point: O=C(Nc1cc(C(F)(F)F)cc(C(F)(F)F)c1)c1cc(Cl)cnc1O
RESULT: > 270 °C

* * *

Below, each entry is listed with its recorded melting point.

Record excerpt, results attached:
1. CC(=O)N1CCN=C1Nc1cc(C)nn1C(C)C ... 145 to 147 °C
2. Cc1ccc2c(c1)c(=O)[nH]c1c2c2ccccc2n1C ... > 310 °C
3. CC(C)Oc1cc(OC(C)C)c(C(=O)O)c(C(F)(F)F)n1 ... 147 to 150 °C
4. Cc1ccc(Cc2cc3c(cc2/C=C/c2ccc(C(=O)O)cc2)C(C)(C)CCC3(C)C)cc1 ... 216 to 217 °C

QUERY: Look up melting point: O=C(CCCNC(=O)C(=O)c1cn2c3c(cccc13)CCC2)NO
RESULT: 95 to 97 °C

QUERY: Look up melting point: Cc1cc2ncnn2nc1OCC(C)(C)CCS(N)(=O)=O
RESULT: 214 to 215 °C

* * *

resultType: melting point

Record excerpt, results attached:
1. COc1cc2c(cc1OC)C(c1cccc(Cl)c1)=NNC(C)C2 (stereo unspecified) ... 116 to 120 °C
2. CCCCCCCC=C1SC(=S)N(N=c2sc3ccccc3s2)C1=O ... 185 °C
3. Cc1nc(C(F)(F)F)ccc1C(=O)C1=C(Sc2ccccc2)CCCC1=O ... 124 to 125 °C
4. C#CCOc1cc(-c2ncnc(C)c2C)c(F)cc1Cl ... 131 to 133 °C
5. CC(=O)CC(C)(C)Cn1c(C)nc2c(N)nc3ccccc3c21 ... 223 to 225 °C
6. O=C(Cl)c1cnc(Cl)nc1-c1ccccc1 ... 42 °C
7. CC[C@H](C)[C@H](NS(=O)(=O)c1ccc(C)cc1)C(=O)N[C@H](CO)Cc1c[nH]c2ccccc12 ... 217 to 219 °C
8. c1ccc(Nc2nsc3nc4ccccc4n23)nc1 ... 156 to 157 °C

QUERY: Look up melting point: CC(C)(N)[C@@H]1CCN(c2cc3c(c(N)c2F)c(=O)c(C(=O)O)cn3C2CC2)C1
RESULT: > 300 °C

QUERY: Look up melting point: C=CS(=O)(=O)NCCCc1ccc(-c2ccc(=O)[nH]n2)cc1
RESULT: 166 to 168 °C
